Target or system HCT-15; recorded quantity GI50.
assay_endpoint: GI50 (µM)

- O=C1c2ccccc2-c2cc([N+](=O)[O-])c([N+](=O)[O-])cc21: 1.78
- OC(c1ccccc1)c1c(-c2ccccc2)[nH]c(-c2ccccc2)c1C(O)c1ccccc1 (stereo not given): 3.76

###

Reported GI50 is given for each of the following molecules.
# Test system: KM12
# procedure_text: NCI tumour cell line growth inhibition, 48 h
Activity calls are given as the source filed them. Rule as the data show it: active = GI50 up to about 1.1 µM and inactive = higher.
assay_endpoint: GI50

* COc1cc(N(CCC#N)CCC#N)ccc1C(/N=N/c1cccc(C)c1)=N\NC(=O)c1ccc(C)cc1 | > 100 µM (inactive)
* Cc1ccc(C)c(NC(=O)CCc2nnc(S)[nH]2)c1 | > 100 µM (inactive)
* CC(=O)C1=C(C)Cn2c(=O)c3ccccc3c(=O)n2C1 | > 100 µM (inactive)
* C=CCN(N=O)C(=O)NCCCCC(NC(C)=O)C(=O)NCc1ccccc1 (stereo unspecified) | > 100 µM (inactive)
* Cc1cc(C)c(N)c(C)c1N | > 100 µM (inactive)
* Cc1cccc(Nc2cn(CCOc3ccccc3)c(=O)[nH]c2=O)c1 | 31.3 µM (inactive)

###

# Test system: HL-60
# procedure_text: NCI tumour cell line growth inhibition, 48 h
Activity calls are given as the source filed them. Rule as the data show it: active = GI50 up to about 1.1 µM and inactive = higher. *1 amine or outer side, *2 acyl side, *3 side chain or, on linkers, in order; H or OH if unused. Where a SMILES comes first, the peptide text is derived from it. Bridges are numbered along the chain shown (N, C = ends). [ ]: non-standard residue; d: D form. ξ: configuration not given here. X10 = CCC(C)C(N[*:1])C(O)CC(=O)O[C@H](C(=O)C(C)C(=O)[*:2])C(C)C; NMeY = CN[C@@H](Cc1ccc(O)cc1)C(=O)O; ξNMeL = CNC(CC(C)C)C(=O)O; ξT = CC(O)C(N)C(=O)O
Labels: class 1 for active, class 0 for inactive

* N#CCCNCCN(CCN(C(=O)Nc1ccccc1)c1ccccc1)C(=O)Nc1ccccc1 | class 0
* COc1ccc([C@]23CCC4(OCC(C)(C)CO4)[C@H]4CON(O[C@H](O[C@@H]5CCCCC5C(C)(C)c5ccccc5)C2)[C@@H]43)cc1OC (some centres undefined) | class 0
* O=C(O)C1(Cc2ccc3c(c2)CCC3)Cc2ccccc2C1=O (centres undefined) | class 0
* CCC(C)C1NC(=O)C(NC(=O)C(CC(C)C)N(C)C(=O)[C@@H]2CCCN2)C(C)OC(=O)[C@H](Cc2ccc(OC)cc2)N(C)C(=O)[C@@H]2CCCN2C(=O)[C@H](CC(C)C)NC(=O)C(C)C(=O)[C@H](C(C)C)OC(=O)CC1O (some centres undefined) (H-P[ξNMeL][ξT][X10]LP[NMeY](Me); ester 3-C) | class 1
* CCSSCS(C)(=O)=O | class 0
* CC(=O)/C=C1/c2ccccc2N(C(C)=O)C1O (centres undefined) | class 0
* O=C1NC(S(=O)(=O)O)=NNC12c1ccccc1-c1ccccc12 | class 0
* Cc1ns/c(=N\C(=S)N(C)C)n1C | class 0
* CCOC(=O)C(NC(=O)Nc1ccccc1)(Nc1cccc(Cl)c1)C(F)(F)F (centres undefined) | class 0

###

Let's look at some molecules and their measured GI50.
# Test system: OVCAR-3
# procedure_text: NCI tumour cell line growth inhibition, 48 h
Counter-ions that a name gives are not always drawn. The source made the active and inactive calls. Rule as the data show it: active = GI50 up to about 1.1 µM and inactive = higher. *1 amine or outer side, *2 acyl side, *3 side chain or, on linkers, in order; H or OH if unused. Where a SMILES comes first, the peptide text is derived from it. Bridges are numbered along the chain shown (N, C = ends). [ ]: non-standard residue; d: D form. ξ: configuration not given here. X10 = CCC(C)C(N[*:1])C(O)CC(=O)O[C@H](C(=O)C(C)C(=O)[*:2])C(C)C; NMeY = CN[C@@H](Cc1ccc(O)cc1)C(=O)O; ξNMeL = CNC(CC(C)C)C(=O)O; ξT = CC(O)C(N)C(=O)O
assay_endpoint: GI50

* O=C1Nc2ccccc2S/C1=C\c1ccccc1C(F)(F)F | > 100 µM (inactive)
* Cc1cc(NCCCCCCCNc2cc(C)nc3cc(N)ccc23)c2ccc(N)cc2n1 | 44 µM (inactive)
* N#CC(C(=O)CCC(=O)Nc1cccc(Cl)c1)c1ccccc1 (stereo unspecified) | > 100 µM (inactive)
* c1ccc2c(c1)Sc1ccccc1N2C1CN2CCC1CC2 (stereo unspecified) | 15.8 µM (inactive)
* CCCSc1ccc2[nH]c(/N=C/c3ccco3)cc2c1 | 29.8 µM (inactive)
* Cc1ccc(C)c(N2C(=O)C(=O)C(c3nc4ccccc4s3)C(=O)C2=O)c1 | > 100 µM (inactive)
* O=C1/C(=C/c2ccc(Cl)cc2)CNC/C1=C\c1ccc(Cl)cc1 | 1.86 µM (inactive)
* NC(=S)N1N=C2c3ccccc3CC[C@H]2[C@@H]1c1ccc(Cl)cc1 | 28.2 µM (inactive)
* CC1=CC(=O)CC(C)(C)C1(O)/C=C/C(C)=C/C(=O)O (stereo unspecified) | > 100 µM (inactive)
* CCN(CC)CCNc1ccc(C)c2sc3ccccc3c(=O)c12 [LUCANTHONE HYDROCHLORIDE] | 6.08 µM (inactive)
* Cc1cccc(Nc2cn(CCOc3ccccc3)c(=O)[nH]c2=O)c1 | 18.7 µM (inactive)
* Clc1ccc(Cl)c(Nc2ccnc(SCc3ccccc3)n2)c1 | > 100 µM (inactive)
* O=C1C(c2ccc(Br)cc2)=[N+]([O-])c2ccccc21 | 14.9 µM (inactive)
* CC(=O)OCC1OC(n2c(C)c(C(C)=O)c(-c3ccc(Cl)cc3)c(C#N)c2=S)C(OC(C)=O)C(OC(C)=O)C1OC(C)=O (stereo unspecified) | > 100 µM (inactive)
* CN(C)C(=S)SCC(=O)Nc1ccccc1 | > 100 µM (inactive)
* NC(=O)c1cc(N2CC2)c([N+](=O)[O-])cc1[N+](=O)[O-] | > 100 µM (inactive)
* O=[N+]([O-])C(Cl)C(Cl)C(Cl)=C(Cl)Cl (stereo unspecified) | 26 µM (inactive)
* CCc1cccc(CC)c1Nc1nc2c(s1)C(=O)c1ccccc1C2=O | 13.7 µM (inactive)
* COc1cc(C2C(C(=O)Nc3ccc([N+](=O)[O-])cc3)=C(C)NC(C)=C2C(=O)Nc2ccc([N+](=O)[O-])cc2)ccc1O | 22.7 µM (inactive)
* C[N+](C)(C)CCOP(=O)(O)OP(=O)([O-])OCC1CCC(n2ccc(N)nc2=O)O1 (stereo unspecified) | > 100 µM (inactive)
* CC1=NN(c2cccc(Cl)c2)C2(C1)SCC(=O)N2c1nc2ccccc2s1 (stereo unspecified) | 16.2 µM (inactive)
* Cc1ccccc1NC(=O)Cc1nc2ccccc2s1 | 18 µM (inactive)
* CC(C)c1ccc(/C=C2\N=C(c3ccc([N+](=O)[O-])cc3)OC2=O)cc1 | > 100 µM (inactive)
* CC(=O)C(C)CCOC1(C)OCCC1C (stereo unspecified) | > 100 µM (inactive)
* c1ccc2c(c1)sc1c3cnccc3ccc21 | > 100 µM (inactive)
* Cc1cccc(C)c1NC(=O)C(=O)CC(=O)c1cccc([N+](=O)[O-])c1 | > 100 µM (inactive)
* CCCCCC(=O)OCCOCCOCCOCCOCCOCc1ccccc1 | > 100 µM (inactive)
* COc1cccc(N2C(=O)C3c4[nH]c5ccc(C)cc5c4C4CCC(C)CC4C3C2=O)c1 (stereo unspecified) | > 100 µM (inactive)
* Cc1c(S(=O)(=O)N/C(=N\O)Nc2ccc(Cl)cc2)sc2ccc(Cl)cc12 | 11.3 µM (inactive)
* N#CC(C#N)/N=N/c1ccc(-c2nc3ccccc3o2)cc1 | 4.19 µM (inactive)
* COC(=O)c1ccc(C(=O)OC)c2nc3cc(C)ccc3nc12 | > 100 µM (inactive)
* Cc1[nH]c2cc([N+](=O)[O-])ccc2c1[N+](=O)[O-] | 25.1 µM (inactive)
* Cc1ccc(S(=O)(=O)c2ccc(NC(=O)SCCC(=O)O)cc2)cc1 | > 100 µM (inactive)
* CC[C@H](NC1=C(Cl)C(=O)c2c(O)ccc(O)c2C1=O)C(=O)OC | 4.19 µM (inactive)
* CC(=O)/C=N/CC(=O)O | > 100 µM (inactive)
* COc1cc2c(/C=C3/C(=O)Nc4ccccc43)c(Cl)[nH]c2cc1C | 0.0434 µM (active)
* CCC(C)C1NC(=O)C(NC(=O)C(CC(C)C)N(C)C(=O)[C@@H]2CCCN2)C(C)OC(=O)[C@H](Cc2ccc(OC)cc2)N(C)C(=O)[C@@H]2CCCN2C(=O)[C@H](CC(C)C)NC(=O)C(C)C(=O)[C@H](C(C)C)OC(=O)CC1O (stereo partly specified) (H-P[ξNMeL][ξT][X10]LP[NMeY](Me); ester 3-C) | 0.00136 µM (active)
* CCOC(=O)c1c(N=P(c2ccccc2)(c2ccccc2)c2ccccc2)nnc(-c2ccccc2)c1-c1ccccc1 | > 100 µM (inactive)
* CSC1=C(C)C(/C=N/Nc2ccc([N+](=O)[O-])cc2)=C(C)N(c2ccccc2)S1(=O)=O | 25.4 µM (inactive)
* C[C@]12CC[C@H](O)C=C1CC[C@@H]1[C@@H]2CC[C@]2(C)C(c3ccc(=O)oc3)CC[C@]12O (stereo partly specified) | 0.0125 µM (active)
* CCCCN[C@H]1C2C3CC4C5CC(C42)C1(C)C53 (stereo partly specified) | > 100 µM (inactive)

The measurements presented in this section are drawn from ChEMBL document CHEMBL1201862.
